System: H1N1 (influenza A/New Caledonia/20/99)
Experiment: microbe, parasite or virus in culture
Format: cell-based
Settings: H1N1, A549, 48 h
pIC50: −log10 of the molar value.
Assign class by pIC50: not lower than 7 means yes; lower than 7 means no.

Below, 7 molecules whose answers are already recorded.
CC1(C)CCc2sc(NC(=O)c3ccc(N4CCOCC4)cc3)c(C(=O)O)c2C1: yes
CC1CC(C)(C)c2sc(NC(=O)c3ccccc3)c(C(=O)O)c21 (centres unmarked): no
CC1(C)Cc2c(sc(NC(=O)c3ccccc3)c2C(=O)O)C(C)(C)C1: yes
CC1(C)CCc2c(sc(NC(=O)c3ccccn3)c2C(=O)O)C1: no
COC1CN(c2ccc(C(=O)Nc3sc4c(c3C(=O)O)C(C)CC(C)(C)C4)cc2)C1 (centres unmarked): yes
O=C(Nc1sc2c(c1C(=O)O)CCC(F)(F)C2)c1ccccc1: no
CC1(C)Cc2c(sc(NC(=O)c3ccc(OCC4CCOCC4)cc3)c2C(=O)O)C(C)(C)C1: yes

Decide: pIC50 of `CC1(C)CCc2sc(NC(=O)c3ccc(NC4CCOCC4)cc3)c(C(=O)O)c21` >= 7?
yes
